B1: glmS ribozyme (parent)
chain: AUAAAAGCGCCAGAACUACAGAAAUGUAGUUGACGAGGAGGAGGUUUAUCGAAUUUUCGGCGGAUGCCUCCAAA

# Variants of: B1
# assay text: self-cleavage kobs at 2500 uM GlcN6P; higher = faster cleavage; RNA array
# condition summary: with glucosamine-6-phosphate
This sample holds only a part of the variants without activity.
parameter: self-cleavage kobs at 2500 uM GlcN6P

See these solved cases before continuing.
{"variant id": "C11U A15C A33G G44U U49C A64C C70U", "self-cleavage kobs at 2500 uM GlcN6P": "< 1e-05 s⁻¹"}
{"variant id": "G40C A48C A52U", "self-cleavage kobs at 2500 uM GlcN6P": "< 1e-05 s⁻¹"}
{"variant id": "G63U A64C", "self-cleavage kobs at 2500 uM GlcN6P": "< 1e-05 s⁻¹"}
{"variant id": "G29C G37A G43C U69A", "self-cleavage kobs at 2500 uM GlcN6P": "< 1e-05 s⁻¹"}
{"variant id": "U30A G41U C70G", "self-cleavage kobs at 2500 uM GlcN6P": "0.00387 s⁻¹"}
{"variant id": "G35A G44A", "self-cleavage kobs at 2500 uM GlcN6P": "< 1e-05 s⁻¹"}

What does the record list as self-cleavage kobs at 2500 uM GlcN6P for C10A G38A G40U C50G G51U ? < 1e-05 s⁻¹

Reported self-cleavage kobs at 2500 uM GlcN6P, variant A52G U54G : ____ 0.000616 s⁻¹

State the recorded self-cleavage kobs at 2500 uM GlcN6P for this entry: G9U A33G < 1e-05 s⁻¹

Would you mind telling me what self-cleavage kobs at 2500 uM GlcN6P value was observed for U30G C34A G60U ? < 1e-05 s⁻¹

Entry G13C A36G A64U C70G has what self-cleavage kobs at 2500 uM GlcN6P? < 1e-05 s⁻¹
